Can you tell me pIC50 for the items I'm about to list?
Target: Drosophila RDL (Drosophila melanogaster, UniProt P25123)
Construct: expressed in transfected cells; host or cells: Xenopus oocytes (Ecocyte, Austin, TX) microinjected with capped cRNA
Sequence (P25123 45-606): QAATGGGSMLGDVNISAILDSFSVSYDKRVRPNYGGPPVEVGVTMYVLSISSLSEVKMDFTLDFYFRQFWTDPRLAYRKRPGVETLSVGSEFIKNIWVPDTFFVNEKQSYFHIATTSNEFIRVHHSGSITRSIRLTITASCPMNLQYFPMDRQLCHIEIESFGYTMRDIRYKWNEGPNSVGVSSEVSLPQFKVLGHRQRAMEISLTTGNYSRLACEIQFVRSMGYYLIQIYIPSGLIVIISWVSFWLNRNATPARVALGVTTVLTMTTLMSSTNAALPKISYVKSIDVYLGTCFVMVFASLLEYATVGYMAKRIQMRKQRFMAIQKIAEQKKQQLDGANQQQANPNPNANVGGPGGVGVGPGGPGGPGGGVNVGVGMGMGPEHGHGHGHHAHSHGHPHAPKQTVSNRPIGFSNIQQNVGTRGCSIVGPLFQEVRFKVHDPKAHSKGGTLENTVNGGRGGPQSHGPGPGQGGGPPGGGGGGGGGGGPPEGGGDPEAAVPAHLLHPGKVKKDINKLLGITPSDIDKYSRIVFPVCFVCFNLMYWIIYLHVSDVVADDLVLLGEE
Assay: RDL receptors assay: two-electrode voltage clamp electrophysiology in Xenopus oocytes
Type: cell-based
Just the number, please; pIC50 means minus log10 of the concentration in mol/L.

For the compound shown here, CC(C)C1C2OC(=O)C1C1(O)CC3OC34C(=O)OC2C14C (centres unmarked) , give the reported pIC50.
5.97

For the compound shown here, CC(C)(O)[C@@H]1[C@H]2OC(=O)[C@@H]1[C@]1(O)C[C@H]3O[C@]34C(=O)O[C@H]2[C@]14C [PTN, picrotin, reference compound] , give the reported pIC50.
6.08

For the compound shown here, CC1(C2C3OC(=O)C2C2(O)CC4OC45C(=O)OC3C25C)CC1 (centres unmarked) , give the reported pIC50.
6.16

For the compound shown here, C=C(C)C1C2OC(=O)C1(C)C1(O)CC3OC34C(=O)OC2C41C (centres unmarked) , give the reported pIC50.
5.77

For the compound shown here, C=C(C)[C@@H]1[C@H]2OC(=O)[C@@H]1[C@]1(O)C[C@H]3O[C@]34C(=O)O[C@H]2[C@]14C , give the reported pIC50.
6.10
